Biological target: alpha-glucosidase (Saccharomyces cerevisiae)
Test: Inhibition of alpha-glucosidase (unknown origin) using p-nitrophenyl alpha-D-glucopyranoside as substrate preincubated for 15 mins followed by substrate addition measured after 30 mins by spectrophotometric method
IC50 overview
Numbers only here, please. The scale is µM.

Below are worked cases with known answers.
O=C1NC(=S)S/C1=C\c1ccc(OCN2C(=O)c3ccccc3C2=O)cc1 on alpha-glucosidase (Saccharomyces cerevisiae) gives IC50 = 7.91

O=C1NC(=S)S/C1=C\c1ccc(OCN2C(=O)c3ccccc3C2=O)c([N+](=O)[O-])c1 on alpha-glucosidase (Saccharomyces cerevisiae) gives IC50 = 6.59

CCOc1cc(/C=C2\SC(=S)NC2=O)ccc1OCN1C(=O)c2ccccc2C1=O on alpha-glucosidase (Saccharomyces cerevisiae) gives IC50 = 7.72

O=C1NC(=O)/C(=C/c2ccc(OCN3C(=O)c4ccccc4C3=O)cc2)S1 on alpha-glucosidase (Saccharomyces cerevisiae) gives IC50 = 25.6

O=C1NC(=S)S/C1=C\c1cc([N+](=O)[O-])ccc1OCN1C(=O)c2ccccc2C1=O on alpha-glucosidase (Saccharomyces cerevisiae) gives IC50 = 35.79

Further cases:
COc1cc(/C=C2\SC(=S)NC2=O)cc(OC)c1OCN1C(=O)c2ccccc2C1=O on alpha-glucosidase (Saccharomyces cerevisiae) gives IC50 = 39.81

CCOc1cc(/C=C2\SC(=O)NC2=O)ccc1OCN1C(=O)c2ccccc2C1=O on alpha-glucosidase (Saccharomyces cerevisiae) gives IC50 = 29.26

COc1cc(/C=C2\SC(=O)NC2=O)ccc1OCN1C(=O)c2ccccc2C1=O on alpha-glucosidase (Saccharomyces cerevisiae) gives IC50 = 35.14

O=C1NC(=S)S/C1=C\c1cc(Cl)ccc1OCN1C(=O)c2ccccc2C1=O on alpha-glucosidase (Saccharomyces cerevisiae) gives IC50 = 34.82

COc1cc(/C=C2\SC(=S)NC2=O)ccc1OCN1C(=O)c2ccccc2C1=O on alpha-glucosidase (Saccharomyces cerevisiae) gives IC50 = 16.11

O=C1NC(=O)/C(=C/c2ccc(OCN3C(=O)c4ccccc4C3=O)c(Cl)c2)S1 on alpha-glucosidase (Saccharomyces cerevisiae) gives IC50 = 20.95

O=C1NC(=S)S/C1=C\c1ccc(OCN2C(=O)c3ccccc3C2=O)c(Cl)c1 on alpha-glucosidase (Saccharomyces cerevisiae) gives IC50 = 5.44

O=C1NC(=S)S/C1=C\c1cccc(OCN2C(=O)c3ccccc3C2=O)c1 on alpha-glucosidase (Saccharomyces cerevisiae) gives IC50 = 33.98

O=C1NC(=O)/C(=C/c2ccc(OCN3C(=O)c4ccccc4C3=O)c([N+](=O)[O-])c2)S1 on alpha-glucosidase (Saccharomyces cerevisiae) gives IC50 = 22.48

O=C1NC(=O)/C(=C/c2cc([N+](=O)[O-])ccc2OCN2C(=O)c3ccccc3C2=O)S1 on alpha-glucosidase (Saccharomyces cerevisiae) gives IC50 = 50.45
